Test system: SF-295 CNS
assay.text: NCI tumour cell line growth inhibition, 48 h
Where a SMILES comes first, the peptide text is derived from it. The star is where a group is joined. Cbz = O=C(OCc1ccccc1)*; Boc = CC(C)(C)OC(=O)*; OSu = O=C1CCC(=O)N1O*; Bn = c1ccc(C*)cc1
observable: TGI

[[record]]
compound = "Cc1ncc(CSC(=N)N)n1Cc1ccccc1"
observable = "TGI"
observed = "> 100 µM"

[[record]]
compound = "CC(C)=Nn1cnc2c1NC(C)(C)N=C2C(N)=O"
observable = "TGI"
observed = "> 10 µM"

[[record]]
compound = "C=CCOC(=O)N1c2ccc(O)cc2[C@@]23O[C@@]24[C@@H]1C#C/C=C\\C#C[C@]3(O)C(=O)C[C@@H]4C"
observable = "TGI"
observed = "> 100 µM"

[[record]]
compound = "COc1ccc(-c2cc(-c3ccco3)c(C#N)c(=O)[nH]2)cc1"
observable = "TGI"
observed = "> 100 µM"

[[record]]
compound = "CC(=O)O[C@H]1C(=O)[C@@]2(C)[C@H]([C@H](OC(=O)c3ccco3)[C@]3(O)C[C@H](OC(=O)[C@H](O)[C@@H](NC(=O)c4ccccc4)c4ccccc4)C(C)=C1C3(C)C)[C@]1(OC(C)=O)CO[C@@H]1C[C@@H]2O"
observable = "TGI"
observed = "> 19.7 µM"

[[record]]
compound = "N/C(=N\\C(N)=N\\c1nc2ccccc2s1)c1cnccn1"
observable = "TGI"
observed = "22.6 µM"

[[record]]
compound = "OCC#Cc1ccccc1C#Cc1ccc(C#Cc2ccccc2)cc1"
observable = "TGI"
observed = "> 100 µM"

[[record]]
compound = "O=c1cccccc1[O-].O=c1cccccc1[O-].O=c1cccccc1[O-].[Sm+3]"
observable = "TGI"
observed = "> 100 µM"

[[record]]
compound = "CCOC(=O)C1C(c2ccc(OC)cc2)c2c([nH]n(-c3ccccc3)c2=O)CC1(C)O (stereo not given)"
observable = "TGI"
observed = "> 100 µM"

[[record]]
compound = "Cc1cc(C)n2c(nc3ccccc32)c1C#N"
observable = "TGI"
observed = "> 100 µM"

[[record]]
compound = "CCOc1ccc(Nc2nc(-c3c(C)nc4ncccn34)cs2)cc1"
observable = "TGI"
observed = "15.3 µM"

[[record]]
compound = "Oc1ccccc1C=Nc1nc(OCc2ccccc2)nc2[nH]ncc12"
observable = "TGI"
observed = "39.3 µM"

[[record]]
compound = "c1ccc(Nc2nnc(CCCCCCCCc3nnc(Nc4ccccc4)o3)o2)cc1"
observable = "TGI"
observed = "> 100 µM"

[[record]]
compound = "COc1c(O)c2c3c(c1OC)-c1ccccc1CC3N(S(=O)(=O)c1ccc(C)cc1)CC2 (stereo not given)"
observable = "TGI"
observed = "30.6 µM"

[[record]]
compound = "Cc1cc(=O)n2nc(CSc3nnc(Sc4cc(O)ccc4O)s3)sc2n1"
observable = "TGI"
observed = "> 100 µM"

[[record]]
compound = "Cc1cc2c(cc1Cl)Sc1n[nH]c(=O)n1S2(=O)=O"
observable = "TGI"
observed = "> 100 µM"

[[record]]
compound = "C(=C\\c1c2oc(-c3ccccc3)cc(-c3ccccc3)c-2c2ccccc12)/C=C1\\c2ccccc2-c2c(-c3ccccc3)cc(-c3ccccc3)[o+]c21"
observable = "TGI"
observed = "> 100 µM"

[[record]]
compound = "CC(=O)N1c2cc(N=NN(C)C)ccc2NC(=O)CC1C (stereo not given)"
observable = "TGI"
observed = "> 100 µM"

[[record]]
compound = "CC(CC=O)Nc1nn2c(=O)c3ccccc3nc2s1 (stereo not given)"
observable = "TGI"
observed = "> 100 µM"

[[record]]
compound = "COC(=O)c1ccccc1C1CN=NC12Cc1c(C)ccc(C)c1C2=O (stereo not given)"
observable = "TGI"
observed = "> 100 µM"

[[record]]
compound = "CC(NNC(=O)c1ccncc1)c1ccc(Cl)cc1Cl (stereo not given)"
observable = "TGI"
observed = "> 100 µM"

[[record]]
compound = "Fc1ccc(-c2nn3c(COc4ccc(Cl)cc4)nnc3s2)cc1Oc1ccccc1"
observable = "TGI"
observed = "33.5 µM"

[[record]]
compound = "O=c1c2cc(I)ccc2nc(-c2cccs2)n1O"
observable = "TGI"
observed = "> 100 µM"

[[record]]
compound = "Oc1ccc(SCc2cc(O)ccc2O)cc1"
observable = "TGI"
observed = "39 µM"

[[record]]
compound = "CCOC(=O)c1c(-c2ccccc2)c(C)cn1C"
observable = "TGI"
observed = "> 10 µM"

[[record]]
compound = "CC1CCCN1CCCOC(=O)c1ccc(OC2C=CCCC2)cc1 (stereo not given)"
observable = "TGI"
observed = "37.9 µM"

[[record]]
compound = "S=c1[nH]n2c(COc3cc(Cl)c(OCc4nnc5sc(=S)[nH]n45)cc3Cl)nnc2s1"
observable = "TGI"
observed = "> 100 µM"

[[record]]
compound = "CCCCCCCc1ccc(-c2nnc(N=Nc3ccc(OCCCCC)cc3)s2)s1"
observable = "TGI"
observed = "> 100 µM"

[[record]]
compound = "CC(C)(C)OC(=O)NC(Cc1ccc(OCc2ccccc2)cc1)C(=O)NC(CCCCNC(=O)OCc1ccccc1)C(=O)NC(CCCCNC(=O)OCc1ccccc1)C(=O)ON1C(=O)CCC1=O (stereo not given) (Boc-Tyr(Bn)-Lys(Cbz)-Lys(Cbz)-OSu; configuration not given here)"
observable = "TGI"
observed = "72.1 µM"

[[record]]
compound = "CC1=CCN(c2ccccn2)OC1c1ccccc1 (stereo not given)"
observable = "TGI"
observed = "> 100 µM"

[[record]]
compound = "N#CCC1(n2cc(-c3ncnc4[nH]ccc34)cn2)CN(C2CCN(C(=O)c3ccnc(C(F)(F)F)c3F)CC2)C1"
observable = "TGI"
observed = "> 100 µM"

[[record]]
compound = "COc1ccc(/C(CC2OC(=O)c3ccccc32)=N\\NC(N)=O)cc1 (stereo not given)"
observable = "TGI"
observed = "> 100 µM"

[[record]]
compound = "OCCCCC#Cc1ccccc1C#Cc1ccc(C(F)(F)F)cc1"
observable = "TGI"
observed = "34.5 µM"

[[record]]
compound = "O=C1c2ccccc2C(=O)c2sc(Nc3cc(Cl)ccc3Cl)nc21"
observable = "TGI"
observed = "17.4 µM"

[[record]]
compound = "COc1ccc(C23OCC(Cc4cc(OC)c(OC)cc42)C3CO)cc1OC (stereo not given)"
observable = "TGI"
observed = "> 100 µM"

[[record]]
compound = "COC(=O)C1CCC(=O)N1/C(C)=N/NC(=O)Nc1ccc(Cl)c(Cl)c1 (stereo not given)"
observable = "TGI"
observed = "> 100 µM"

[[record]]
compound = "CC1(Cl)CC(C)(/C=C/Cl)C(Cl)CC1Cl (stereo not given)"
observable = "TGI"
observed = "28.5 µM"

[[record]]
compound = "Nc1ccc(C(=O)/C=C/c2ccccc2O)cc1"
observable = "TGI"
observed = "> 100 µM"

[[record]]
compound = "COc1ccc(CC[N+]2(C)COc3cc4oc(=O)cc(C)c4cc3C2)cc1OC (stereo not given)"
observable = "TGI"
observed = "> 100 µM"

[[record]]
compound = "CCc1cc2c(c3c1CCCC3=O)CC1(C2)Cc2cc(CC)c3c(c2C1)C(=O)CCC3"
observable = "TGI"
observed = "> 100 µM"

